# credit: patent US20160362487A1

koff reference
# target or system: T1, cynomolgus monkey IL-33 expressed with a C-terminal hexahistidine tag (cynomolgus monkey)
# T1 construct: also called MfIL-33-6His; Mf-IL-33-6His
# T1 chain: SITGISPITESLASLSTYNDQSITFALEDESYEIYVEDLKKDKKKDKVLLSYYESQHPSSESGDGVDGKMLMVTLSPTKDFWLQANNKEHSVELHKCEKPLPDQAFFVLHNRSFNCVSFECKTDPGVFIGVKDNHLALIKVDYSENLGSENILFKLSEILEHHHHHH
# method description: SPR 25C pH7.4, mAb captured
The reply should contain only the number, in s⁻¹.

input: What measured koff goes with H1M9568N (antibody, mouse IgG1, V domains shown, Human variable domains, mouse IgG1 Fc (H1M)) VH: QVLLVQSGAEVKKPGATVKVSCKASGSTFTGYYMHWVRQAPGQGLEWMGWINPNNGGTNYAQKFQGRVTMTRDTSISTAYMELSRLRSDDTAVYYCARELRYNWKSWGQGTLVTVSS VL: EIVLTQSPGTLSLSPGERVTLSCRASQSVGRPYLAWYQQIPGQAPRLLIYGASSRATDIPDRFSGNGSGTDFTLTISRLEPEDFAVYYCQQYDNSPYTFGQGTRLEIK ?
output: 0.000261

Continuing:
input: What measured koff goes with H4H9659P (antibody, human IgG4, V domains shown, Human IgG4 Fc (H4H)) VH: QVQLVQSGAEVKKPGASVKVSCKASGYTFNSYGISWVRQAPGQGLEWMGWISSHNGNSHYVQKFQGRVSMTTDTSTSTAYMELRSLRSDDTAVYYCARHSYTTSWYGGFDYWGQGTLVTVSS VL: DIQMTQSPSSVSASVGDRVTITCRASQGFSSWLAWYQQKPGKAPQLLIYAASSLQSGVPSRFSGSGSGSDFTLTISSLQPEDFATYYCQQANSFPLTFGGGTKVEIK ?
output: 0.000486
